meta.source: ChEMBL document CHEMBL3745713

Tested on: A549
method: Cytotoxicity against human A549 cells assessed as cell growth at 50 uM measured at 72 hrs by CyQuant proliferation assay relative to control
Assay type: functional
setup conditions: A549, 72 h, read-out: Activity
growth at 50 µM overview

Answered examples (5):
{"molecule": "CCCCC(C)CCC/C=C\\CCCCCCC(=O)NCCc1cc(Br)c(OCCCNC(=O)C2=NO[C@@]3(C=C(Br)C(OC)=C(Br)[C@H]3O)C2)c(Br)c1 (some centres not stated)", "value reported": "104%"}
{"molecule": "COc1c(Br)cc(C/C(=N\\O)C(=O)NCCc2cc(Br)c(OCCCN)c(Br)c2)cc1Br", "value reported": "24%"}
{"molecule": "COc1c(Br)cc(C/C(=N\\O)C(=O)NCCCOc2c(Br)cc(CCN)cc2Br)c(O)c1Br", "value reported": "21%"}
{"molecule": "COC1=C(Br)[C@@H](O)[C@]2(C=C1Br)CC(C(=O)NCCCOc1c(Br)cc(C(=O)O)cc1Br)=NO2", "value reported": "68%"}
{"molecule": "COC1=C(Br)[C@@H](O)[C@]2(C=C1Br)CC(C(=O)NCCCOc1c(Br)cc(CCN)cc1Br)=NO2 [ARAPLYSILLIN 1]", "value reported": "17%"}

Case COC1=C(Br)[C@@H](O)[C@]2(C=C1Br)CC(C(=O)NCCCOc1c(Br)cc(CCNC(=O)CCCCCCCCCCCC(C)C)cc1Br)=NO2 , A549, growth at 50 µM recorded as 85%

Item COC1=C(Br)[C@@H](O)[C@]2(C=C1Br)CC(C(=O)NCCCOc1c(Br)cc(CCNC(=N)N)cc1Br)=NO2 was tested on A549; the reported growth at 50 µM is 48%
